test system: Mycobacterium tuberculosis H37Rv; assay: In vitro assay for antimicrobial susceptibility (microplate Alamar blue, MIC); format: cell-based; conditions: Mycobacterium tuberculosis; M. tuberculosis H37Rv, 7H9 broth, Alamar blue; read-out: MIC (μg/mL) against H37Rv
quantity_kind: MIC (µg/mL)
# value in µg/mL; strip the unit string

As a guide, the following entries are already answered.
compound	MIC / µg/mL
CCCC(=O)NC[C@H]1CN(c2ccc(N3CCCSCC3)c(F)c2)C(=O)O1 [OBD-005]	0.055
O=C1O[C@@H](CO)CN1c1cc(F)c(N2CC3CCC(C2)O3)c(F)c1 [OBD-114]	1.7

Value of MIC reported for the compound CS(=O)(=O)NC[C@H]1CN(c2ccc(N3CC4(CSC4)C3)c(F)c2)C(=O)O1 [OTB-260-2A] is 0.82

Entry under test: O=C1O[C@@H](Cn2nccn2)CN1c1ccc(N2CCC[S+]([O-])CC2)c(F)c1 (some centres unmarked) [OTB-138] . Its MIC was 7.57

// recorded MIC for O=C1O[C@@H](CO)CN1c1ccc(N2CC3(CSC3)C2)c(F)c1 [OTB-260] : 1.49

Entry under test: CNC[C@H]1CN(c2ccc(N3CCCSCC3)c(F)c2)C(=O)O1 [OTB-109] . Its MIC was 32

Recorded result, CC(=O)NC[C@H]1CN(c2cc(F)c(N3CC4CCC(C3)O4)c(F)c2)C(=O)O1 [OBD-048] , MIC: 0.39

Summary for this compound, O=C(NC[C@H]1CN(c2cc(F)c(N3CC4(CSC4)C3)c(F)c2)C(=O)O1)C1CC1 [OTB-243] : MIC is 0.03

Recorded result, COC(=O)NC[C@H]1CN(c2cc(F)c(N3CCCSCC3)c(F)c2)C(=O)O1 [OTB-410] , MIC: 0.125

// MIC value for O=C(NC[C@H]1CN(c2ccc(N3CC4(CSC4)C3)c(F)c2)C(=O)O1)C1CCC1 [OTB-250] : 0.06

----------
Below, each entry is listed with its recorded log10 MIC.
test system: Mycobacterium tuberculosis H37Rv; experiment: In vitro assay for antimicrobial susceptibility (microplate Alamar blue, MIC); assay type: cell-based; conditions: Mycobacterium tuberculosis; M. tuberculosis H37Rv, 7H9 broth, Alamar blue; read-out: MIC (μg/mL) against H37Rv
Answers are given as log10 of MIC in µg/mL.

For `O=C1O[C@@H](CO)CN1c1ccc(N2CC3(COC3)C2)c(F)c1` the compound record lists log10 MIC as 1.20

GET /value?item= `O=C1O[C@@H](Cn2cncn2)CN1c1ccc(N2CCCSCCC2)c(F)c1` &field=log10 MIC returns 0.55

# log10 MIC of `CC(=O)NC[C@H]1CN(c2cc(F)c(N3CCCSCC3)c(F)c2)C(=O)O1` = -1.01

# compound `COC(=O)NC[C@H]1CN(c2ccc(N3CCCSCC3)c(F)c2)C(=O)O1` ; its log10 MIC = -0.70

Query `CCCC(=O)OC[C@H]1CN(c2ccc(N3CCCSCC3)c(F)c2)C(=O)O1` yields log10 MIC of -0.90

Just so you know, measured log10 MIC for `O=C(NC[C@H]1CN(c2cc(F)c(N3CC4CCC(C3)O4)c(F)c2)C(=O)O1)C1CC1` came out at -0.33

Just so you know, measured log10 MIC for `CS(=O)(=O)NC[C@H]1CN(c2cc(F)c(N3CC4(CSC4)C3)c(F)c2)C(=O)O1` came out at -1.30

get_value(item= `CCCC(=O)NC[C@H]1CN(c2cc(F)c(N3CCCSCCC3)c(F)c2)C(=O)O1` , readout=log10 MIC) returns -0.40

Measured log10 MIC, `O=C(NC[C@H]1CN(c2ccc(N3CC4(COC4)C3)c(F)c2)C(=O)O1)c1cccs1` : 0.45

Note to self: log10 MIC recorded for `O=C1O[C@@H](CNc2ccon2)CN1c1ccc(N2CC3(COC3)C2)c(F)c1` was 0.28

Note to self: log10 MIC recorded for `CCCCS(=O)(=O)NC[C@H]1CN(c2ccc(N3CCCSCC3)c(F)c2)C(=O)O1` was 0.58

Just so you know, measured log10 MIC for `O=C(NC[C@H]1CN(c2ccc(N3CCCSCCC3)c(F)c2)C(=O)O1)c1cccs1` came out at 0.19

----------
test system: Mycobacterium tuberculosis H37Rv; assay: In vitro assay for antimicrobial susceptibility (microplate Alamar blue, MIC); format: cell-based; details: Mycobacterium tuberculosis; M. tuberculosis H37Rv, 7H9 broth, Alamar blue; read-out: MIC (μg/mL) against H37Rv
quantity_kind: MIC

Some solved entries appear below for comparison.
molecule	result
O=C(NC[C@H]1CN(c2ccc(N3CCC[S+]([O-])CC3)c(F)c2)C(=O)O1)c1ccco1 (stereo partly shown)	1.23 µg/mL
O=C1O[C@@H](Cn2ccnn2)CN1c1ccc(N2CCCSCC2)c(F)c1	0.03 µg/mL
O=C1O[C@@H](Cn2ccnn2)CN1c1ccc(N2CC3(CSC3)C2)c(F)c1	0.116 µg/mL

Briefly, MIC measured for `O=C(NC[C@H]1CN(c2ccc(N3CC4(COC4)C3)c(F)c2)C(=O)O1)C1CCC1` : 2.1 to 3.8 µg/mL

GET /value?item= `O=C(NC[C@H]1CN(c2cc(F)c(N3CC4(COC4)C3)c(F)c2)C(=O)O1)C1CC1` &field=MIC returns 0.36 to 1 µg/mL

Sample `O=C1O[C@@H](Cn2nccn2)CN1c1ccc(N2CC3(CSC3)C2)c(F)c1` ; MIC observed: 0.44 µg/mL

The reported value for `O=C1O[C@@H](Cn2ccnn2)CN1c1cc(F)c(N2CC3(CSC3)C2)c(F)c1` in terms of MIC is 0.03 to 0.5 µg/mL

----------
test system: Mycobacterium tuberculosis H37Rv; assay: In vitro assay for antimicrobial susceptibility (microplate Alamar blue, MIC); assay type: cell-based; conditions: Mycobacterium tuberculosis; M. tuberculosis H37Rv, 7H9 broth, Alamar blue; read-out: MIC (μg/mL) against H37Rv
quantity_kind: MIC (µg/mL)
Answer with a number only, understood to be in µg/mL.

compound	quantity_kind	reading_unit	result
CC(=O)NC[C@H]1CN(c2ccc(N3CC4CCC(C3)O4)c(F)c2)C(=O)O1 [OBD-110]	MIC	µg/mL	0.45

We next turn to a different compound, shown below.
I looked up CC(=O)NC[C@H]1CN(c2ccc(N3CC4(CSC4)C3)c(F)c2)C(=O)O1 [OTB-261] and its MIC for Mycobacterium tuberculosis H37Rv was 0.12

----------
system: mitochondrial protein synthesis (MPS) in H9C2 cells; assay: In vitro assay for MPS inhibition (COX-1 / SDH-A ELISA in H9C2 cells); assay type: cell-based, rat; conditions: Rattus norvegicus, H9c2, 120 h, read-out: IC50 (μM) MPS inhibition
quantity_kind: IC50

compound	IC50
O=C(NC[C@H]1CN(c2ccc(N3[C@@H]4CC[C@H]3CSC4)c(F)c2)C(=O)O1)C1CC1	8 µM
O=C(NC[C@H]1CN(c2cc(F)c(N3[C@@H]4CC[C@H]3C[S+]([O-])C4)c(F)c2)C(=O)O1)C1CCC1 (stereo partly drawn)	13 µM
COC(=O)NC[C@H]1CN(c2cc(F)c(N3[C@@H]4CC[C@H]3CSC4)c(F)c2)C(=O)O1	42.5 µM
CC(=O)NC[C@H]1CN(c2cc(F)c(N3[C@@H]4CC[C@H]3CSC4)c(F)c2)C(=O)O1	3 to 7 µM

Record summary for `O=C(NC[C@H]1CN(c2ccc(N3[C@@H]4CC[C@H]3CSC4)c(F)c2)C(=O)O1)C1CCC1` : reported IC50 = 10 µM

IC50 recorded for this compound, `CCCC(=O)NC[C@H]1CN(c2ccc(N3C4CCC3CSC4)c(F)c2)C(=O)O1` , is 13 µM

Input `CCCC(=O)NC[C@H]1CN(c2cc(F)c(N3C4CCC3CSC4)c(F)c2)C(=O)O1` . Output IC50: > 100 µM

Summary for this compound, `NC[C@H]1CN(c2ccc(N3C4CCC3CSC4)c(F)c2)C(=O)O1` : IC50 is 77 µM

Value of measured IC50 for the entry `CC(=O)NC[C@H]1CN(c2ccc(N3C4CSCC3C4)c(F)c2)C(=O)O1` : 15.2 µM

----------
tested on: Mycobacterium tuberculosis H37Rv; experiment: In vitro assay for antimicrobial susceptibility (microplate Alamar blue, MIC); format: cell-based; conditions: Mycobacterium tuberculosis; M. tuberculosis H37Rv, 7H9 broth, Alamar blue; read-out: MIC (μg/mL) against H37Rv
The label is T for MIC below 3 µg/mL and F for MIC equal to or exceeding 3 µg/mL.

Look over these answered cases.
compound	class_assignment
CC(C)(C)C(=O)NC[C@H]1CN(c2ccc(N3CCCSCCC3)c(F)c2)C(=O)O1	T
O=C(NC[C@H]1CN(c2cc(F)c(N3CC4(C3)C[S+]([O-])C4)c(F)c2)C(=O)O1)C1CC1	T

Query string: Just wondering, is MIC of O=C1OC(Cn2ccnn2)CN1c1cc(F)c(N2CC3CCC(C2)O3)c(F)c1 (centres unmarked) below 3 µg/mL?
Result string: T

Query string: Field: below-cutoff. Rule: recorded MIC strictly less than 3 µg/mL. Subject: `O=C(NC[C@H]1CN(c2ccc(N3CC4(COC4)C3)c(F)c2)C(=O)O1)c1ccco1`
Result string: F

Query string: Problem: For the compound `O=C1O[C@@H](CO)CN1c1cc(F)c(N2CC3(CSC3)C2)c(F)c1` , is MIC under 3 µg/mL?
Result string: T

Query string: Dear colleague, could you confirm whether MIC of `CS(=O)(=O)NC[C@H]1CN(c2ccc(N3CC4(COC4)C3)c(F)c2)C(=O)O1` falls below 3 µg/mL? Thanks.
Result string: F

Query string: Determine whether this compound shows MIC lower than 3 µg/mL (ties excluded): `O=C1O[C@@H](Cn2ccnn2)CN1c1ccc(N2CCC[S+]([O-])CCC2)c(F)c1`
Result string: T
